B1: Max-interacting protein 1, residues 70 to 120; numbered along this chain, P50539 (parent)
chain: STHNELEKNRRAHLRLCLERLKVLIPLGPDCTRHTTLGLLNKAKAHIKKLE

Variants of: B1
Experiment: abundance fitness (aPCA) (normalised: wild type 0, dead -1); higher = more abundant; growth selection in yeast, the domain comes from the species named
Settings: Homo sapiens
Label Condition met for high-side abundance fitness (at or above -0.2) and Condition not met for low-side abundance fitness (below it).

Prompt line: Is it the case that K48N has abundance fitness reaching or exceeding -0.2?
Response line: Condition not met

Prompt line: Is it the case that H46Q has abundance fitness reaching or exceeding -0.2?
Response line: Condition met

Prompt line: Is it the case that L18K has abundance fitness reaching or exceeding -0.2?
Response line: Condition not met

Prompt line: Is it the case that L37S has abundance fitness reaching or exceeding -0.2?
Response line: Condition met

Prompt line: Is it the case that H13L has abundance fitness reaching or exceeding -0.2?
Response line: Condition met

Prompt line: Is it the case that L16F has abundance fitness reaching or exceeding -0.2?
Response line: Condition not met

Prompt line: Is it the case that G38L has abundance fitness reaching or exceeding -0.2?
Response line: Condition not met

Prompt line: Is it the case that K49Y has abundance fitness reaching or exceeding -0.2?
Response line: Condition not met

Prompt line: Is it the case that L14T has abundance fitness reaching or exceeding -0.2?
Response line: Condition not met

Prompt line: Is it the case that L40Y has abundance fitness reaching or exceeding -0.2?
Response line: Condition not met

Prompt line: Is it the case that K42N has abundance fitness reaching or exceeding -0.2?
Response line: Condition not met

Prompt line: Is it the case that N41V has abundance fitness reaching or exceeding -0.2?
Response line: Condition not met

Prompt line: Is it the case that H34L has abundance fitness reaching or exceeding -0.2?
Response line: Condition met

Prompt line: Is it the case that R11M has abundance fitness reaching or exceeding -0.2?
Response line: Condition not met

Prompt line: Is it the case that A45M has abundance fitness reaching or exceeding -0.2?
Response line: Condition not met

Prompt line: Is it the case that S1G has abundance fitness reaching or exceeding -0.2?
Response line: Condition not met

Prompt line: Is it the case that L39E has abundance fitness reaching or exceeding -0.2?
Response line: Condition not met

Prompt line: Is it the case that K48E has abundance fitness reaching or exceeding -0.2?
Response line: Condition not met

Prompt line: Is it the case that D30Q has abundance fitness reaching or exceeding -0.2?
Response line: Condition met

Prompt line: Is it the case that L37Q has abundance fitness reaching or exceeding -0.2?
Response line: Condition met

Prompt line: Is it the case that L14H has abundance fitness reaching or exceeding -0.2?
Response line: Condition met

Prompt line: Is it the case that L18F has abundance fitness reaching or exceeding -0.2?
Response line: Condition met

Prompt line: Is it the case that K8P has abundance fitness reaching or exceeding -0.2?
Response line: Condition not met

Prompt line: Is it the case that H46V has abundance fitness reaching or exceeding -0.2?
Response line: Condition met

Prompt line: Is it the case that H34N has abundance fitness reaching or exceeding -0.2?
Response line: Condition met

Prompt line: Is it the case that P26V has abundance fitness reaching or exceeding -0.2?
Response line: Condition not met

Prompt line: Is it the case that K42D has abundance fitness reaching or exceeding -0.2?
Response line: Condition not met

Prompt line: Is it the case that K42M has abundance fitness reaching or exceeding -0.2?
Response line: Condition not met

Prompt line: Is it the case that L18Y has abundance fitness reaching or exceeding -0.2?
Response line: Condition not met
